readout label: melting point (°C)

| compound string | recorded measurement |
| --- | --- |
| Clc1ccc(CNc2nc(NCc3nc4ccccc4[nH]3)c3nc[nH]c3n2)cc1 | 160 |
| O=[N+]([O-])c1ccc(CNc2nc(NCc3cccnc3)c3nc[nH]c3n2)cc1 | 251 |
| Fc1ccc(CNc2nc(NCc3nc4ccccc4[nH]3)c3nc[nH]c3n2)cc1 | 287 |
| FC(F)(F)c1cccc(CNc2nc(NCc3nc4ccccc4[nH]3)c3nc[nH]c3n2)c1 | 289 |
| O=[N+]([O-])c1ccc(CNc2nc(NCc3nc4ccccc4[nH]3)c3nc[nH]c3n2)cc1 | 153 |

====

Record: pKd reported on purified CYP3A4 (Homo sapiens, UniProt P08684).
Sequence (P08684 whole entry): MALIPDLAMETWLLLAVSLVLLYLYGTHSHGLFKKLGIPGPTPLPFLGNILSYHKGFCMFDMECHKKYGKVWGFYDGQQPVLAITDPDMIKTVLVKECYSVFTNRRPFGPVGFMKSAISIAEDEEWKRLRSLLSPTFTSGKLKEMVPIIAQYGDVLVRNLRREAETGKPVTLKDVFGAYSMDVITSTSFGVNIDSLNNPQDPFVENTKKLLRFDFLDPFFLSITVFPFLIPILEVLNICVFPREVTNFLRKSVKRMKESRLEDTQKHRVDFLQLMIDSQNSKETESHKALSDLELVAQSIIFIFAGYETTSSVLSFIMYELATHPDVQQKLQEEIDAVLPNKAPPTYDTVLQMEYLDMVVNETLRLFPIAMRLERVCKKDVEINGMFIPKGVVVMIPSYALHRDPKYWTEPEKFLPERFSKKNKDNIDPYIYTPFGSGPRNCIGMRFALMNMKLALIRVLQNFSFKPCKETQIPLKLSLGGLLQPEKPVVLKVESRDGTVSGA
pKd: −log10 of the molar value.

| compound string | target or system | pKd |
| --- | --- | --- |
| Clc1ccc(CNc2nc(NCc3cccnc3)c3nc[nH]c3n2)cc1 | purified CYP3A4 (Homo sapiens, UniProt P08684) | 5.74 |
| Fc1ccc(CNc2nc(NCc3cccnc3)c3nc[nH]c3n2)cc1 | purified CYP3A4 (Homo sapiens, UniProt P08684) | 5.52 |
| CS(=O)(=O)c1ccc(CNc2nc(NCc3cccc(C(F)(F)F)c3)nc3[nH]cnc23)cc1 | purified CYP3A4 (Homo sapiens, UniProt P08684) | 4.61 |
| Clc1ccc(CNc2nc(NCc3nc4ccccc4[nH]3)c3nc[nH]c3n2)cc1 | purified CYP3A4 (Homo sapiens, UniProt P08684) | 4.77 |
| O=[N+]([O-])c1ccc(CNc2nc(NCc3cccnc3)c3nc[nH]c3n2)cc1 | purified CYP3A4 (Homo sapiens, UniProt P08684) | 5.70 |

====

Listed below: Relative 3A4 inhibition (% of TNP) values for each entry.
molecular target: recombinant microsomal CYP3A4 (Homo sapiens); construct: purchased Invitrogen P2858; host or cells: BACULOSOMES (microsomes of baculovirus-infected insect cells: own knowledge of the product); experiment: In vitro CYP450 activity assay (Vivid CYP450 Blue screening kit, BOMCC); type: in vitro ADME; conditions: recombinant CYP3A4, 100 nM treatment for 10 min, mean ± SEM
Sequence (P08684 whole entry): as the sequence (P08684 whole entry) above
readout label: Relative 3A4 inhibition (% of TNP)

| compound string | readout label | recorded measurement |
| --- | --- | --- |
| FC(F)(F)c1cccc(CNc2nc(NCc3nc4ccccc4[nH]3)c3nc[nH]c3n2)c1 | Relative 3A4 inhibition (% of TNP) | 116 ± 3 % of TNP |
| O=[N+]([O-])c1ccc(CNc2nc(NCc3nc4ccccc4[nH]3)c3nc[nH]c3n2)cc1 | Relative 3A4 inhibition (% of TNP) | 65.7 ± 1.97 % of TNP |
| Fc1ccc(CNc2nc(NCc3nc4ccccc4[nH]3)c3nc[nH]c3n2)cc1 | Relative 3A4 inhibition (% of TNP) | 120 ± 1 % of TNP |
| Clc1ccc(CNc2nc(NCc3nc4ccccc4[nH]3)c3nc[nH]c3n2)cc1 | Relative 3A4 inhibition (% of TNP) | 120 ± 0.66 % of TNP |
| O=[N+]([O-])c1ccc(CNc2nc(NCc3cccnc3)c3nc[nH]c3n2)cc1 | Relative 3A4 inhibition (% of TNP) | 126 ± 1 % of TNP |

====

molecular target: human IP6K2 (Homo sapiens, UniProt Q9UHH9)
Sequence (Q9UHH9 whole entry): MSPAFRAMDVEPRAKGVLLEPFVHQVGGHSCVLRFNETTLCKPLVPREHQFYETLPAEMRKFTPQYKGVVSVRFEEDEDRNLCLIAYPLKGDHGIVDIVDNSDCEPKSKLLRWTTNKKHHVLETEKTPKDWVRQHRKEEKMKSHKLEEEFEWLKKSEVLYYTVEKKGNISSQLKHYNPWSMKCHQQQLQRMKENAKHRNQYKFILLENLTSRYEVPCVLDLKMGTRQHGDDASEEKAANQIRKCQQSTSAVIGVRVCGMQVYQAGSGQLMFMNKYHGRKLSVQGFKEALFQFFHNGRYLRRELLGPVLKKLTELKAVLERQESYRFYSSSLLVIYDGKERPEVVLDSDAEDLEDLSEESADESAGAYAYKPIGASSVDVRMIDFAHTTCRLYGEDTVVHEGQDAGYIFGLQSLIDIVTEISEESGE
pIC50: −log10 of the molar value.
readout label: pIC50

| compound | recorded measurement |
| --- | --- |
| O=[N+]([O-])c1ccc(CNc2nc(NCc3cccc(C(F)(F)F)c3)nc3[nH]cnc23)cc1 [TNP] | 5.35 |
| Fc1ccc(CNc2nc(NCc3nc4ccccc4[nH]3)c3nc[nH]c3n2)cc1 [Compound 18] | 4.88 |
| Clc1ccc(CNc2nc(NCc3nc4ccccc4[nH]3)c3nc[nH]c3n2)cc1 [Compound 19] | 4.71 |
| FC(F)(F)c1cccc(CNc2nc(NCc3cccnc3)c3nc[nH]c3n2)c1 [Compound 10] | 5.28 |
| O=[N+]([O-])c1ccc(CNc2nc(NCc3nc4ccccc4[nH]3)c3nc[nH]c3n2)cc1 [Compound 20] | 4.66 |
